System: Staphylococcus aureus
Assay: Antibacterial activity against Staphylococcus aureus 209-P assessed as growth inhibition after 24 to 72 hr by serial dilution method
Assay type: functional
Activity calls are given as the source filed them. The rule behind the calls is not given here.
Assay metric: MIC

Consider the worked cases shown below.
# input Given the compound O=C1C(Sc2ccc(O)cc2)=C(Sc2ccc(O)cc2)C(=O)c2ccccc21 , what is its reported MIC?
# output 125 µg/mL

# input Quick one: MIC for O=C1C(SCCOc2ccccc2)=C(SCCOc2ccccc2)C(=O)c2ccccc21 ?
# output inactive

# input Quick check: MIC of CCOC1=C(Sc2ccc(O)cc2)C(=O)c2ccccc2C1=O ?
# output inactive

# input Requested read-out: MIC. Entry: O=C1C(SCc2ccc(Cl)cc2)=C(N2CCN(c3ccccc3F)CC2)C(=O)c2ccccc21
# output inactive

# input Which MIC reading was recorded for the compound O=C1C2=C(SCCCCSC3=C(SCCCCS2)C(=O)c2ccccc2C3=O)C(=O)c2ccccc21 ?
# output 500 µg/mL

# input Request the reported MIC associated with O=C1C(SCc2ccc(Cl)cc2)=C(N2CCSCC2)C(=O)c2ccccc21
# output inactive

# input Query: MIC; subject: O=C1C(SCc2ccc(Cl)cc2)=C(N2CCCCC2)C(=O)c2ccccc21
# output inactive

# input Would you kindly share the measured MIC for COC(=O)CCSC1=C(Cl)C(=O)c2ccccc2C1=O ?
# output inactive

Others:
# input Bench note: what MIC did CCOC1=C(Sc2nccn2C)C(=O)c2ccccc2C1=O show?
# output inactive

# input Record request: MIC value, item O=C1C(SCc2ccc(Cl)cc2)=C(N2CCC(C(O)(c3ccccc3)c3ccccc3)CC2)C(=O)c2ccccc21
# output inactive

# input Which MIC value belongs to O=C1C(SCc2ccc(Cl)cc2)=C(N2CCOCC2)C(=O)c2ccccc21 ?
# output inactive
